// data source = PubChem BioAssay AID651618

Recorded measurements of IC90, one per entry
system: M. tuberculosis replicating log phase, growth inhibition; experiment: replicating M. tuberculosis growth inhibition, dose response, counter-screen, dry powder, IC90 (AID 651618)

QUERY: Return reported IC90; argument: c1ccc(CSc2nnc(C3CCCC3)o2)cc1
RESULT: 250 µM

QUERY: Another compound to check: FC1(F)CCN(CCSc2nnc(-c3ccccc3)o2)CC1
RESULT: 250 µM

QUERY: Here is the next compound: Fc1ccccc1CSc1nnc(-c2ccccc2)o1
RESULT: 250 µM

QUERY: Next record, please: Cc1cccc(CSc2nnc(-c3ccccc3)o2)c1
RESULT: 250 µM

QUERY: Let us now turn to c1ccc(CSc2nnc(C3CCCCC3)o2)cc1
RESULT: 250 µM

QUERY: Also check c1ccc(CSc2nnc(-c3ccccc3)o2)cc1
RESULT: 125 µM

QUERY: Record: c1ccc(-c2nnc(SCCN3CCN(c4ccccc4)CC3)o2)cc1
RESULT: 125 µM

QUERY: Check c1ccc(CSc2nnc(-c3cccs3)o2)cc1 too.
RESULT: 250 µM

QUERY: Ok, now Fc1cccc(CSc2nnc(-c3ccccc3)o2)c1
RESULT: 250 µM

QUERY: Also COc1cccc(CSc2nnc(-c3ccccc3)o2)c1 , if possible.
RESULT: 250 µM

QUERY: Please answer likewise for Cc1ccc(-c2nnc(SCc3ccccc3)o2)cc1
RESULT: 125 µM

QUERY: Same again, this time with c1ccc(CSc2nnc(-c3cccnc3)o2)cc1
RESULT: 250 µM

QUERY: Also, FC(F)(F)c1cccc(CSc2nnc(-c3ccccc3)o2)c1 please.
RESULT: 250 µM
